Source listed as the kinase profiling compilation of Christmann-Franck et al. (2016).

# ASSAYED_SYSTEM: NTRK2 (human) (UniProt Q16620)
# Sequence (Q16620 whole entry, looked up): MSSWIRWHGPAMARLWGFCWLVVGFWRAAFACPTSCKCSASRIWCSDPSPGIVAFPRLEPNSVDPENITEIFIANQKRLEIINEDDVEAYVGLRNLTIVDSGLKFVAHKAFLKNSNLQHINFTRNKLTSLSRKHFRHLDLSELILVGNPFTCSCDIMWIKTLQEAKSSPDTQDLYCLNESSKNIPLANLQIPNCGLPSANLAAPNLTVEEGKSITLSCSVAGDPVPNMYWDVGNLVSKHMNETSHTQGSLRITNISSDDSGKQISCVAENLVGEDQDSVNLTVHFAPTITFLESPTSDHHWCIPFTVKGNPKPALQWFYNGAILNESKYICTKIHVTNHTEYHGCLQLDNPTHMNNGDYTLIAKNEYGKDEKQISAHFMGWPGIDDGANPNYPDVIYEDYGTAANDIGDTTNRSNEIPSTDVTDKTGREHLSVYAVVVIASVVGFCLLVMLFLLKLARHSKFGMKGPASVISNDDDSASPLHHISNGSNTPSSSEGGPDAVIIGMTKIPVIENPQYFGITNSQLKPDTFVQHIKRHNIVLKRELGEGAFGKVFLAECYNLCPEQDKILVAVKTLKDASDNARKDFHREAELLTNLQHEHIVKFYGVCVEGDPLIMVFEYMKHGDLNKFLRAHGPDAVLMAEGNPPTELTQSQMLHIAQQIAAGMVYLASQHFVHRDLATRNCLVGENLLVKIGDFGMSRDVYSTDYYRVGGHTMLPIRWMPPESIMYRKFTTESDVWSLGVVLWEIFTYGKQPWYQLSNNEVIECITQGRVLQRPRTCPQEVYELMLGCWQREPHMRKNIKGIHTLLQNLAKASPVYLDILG
# TEST_METHOD_NOTES: Caliper, Mobility shift assay off-chip
# RUN_PARAMETERS: compound 0.02 µM
inhibition: recorded values
Give a bare numeral; the unit % is implied.

A selection of reference data follows.
[Q] Could you share which inhibition value was measured for Cc1ccc(Nc2nccc(N(C)c3ccc4c(C)n(C)nc4c3)n2)cc1S(N)(=O)=O ?
[A] 5.5

[Q] # iterate: COc1cc2c(Oc3ccc4[nH]c(C)cc4c3F)ncnc2cc1OCCCN1CCCC1
[A] 8.3

[Q] # iterate: CNC(=O)c1cc(Oc2ccc(NC(=O)Nc3ccc(Cl)c(C(F)(F)F)c3)cc2)ccn1
[A] 3.2

Next:
[Q] Could you share which inhibition value was measured for CNC(=O)c1ccccc1Sc1ccc2c(/C=C/c3ccccn3)n[nH]c2c1 ?
[A] 10.5
